// provenance: PubChem BioAssay AID1159580

# ASSAY NAME: chemical genetic growth profiling, strain panel (AID 1159580);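 note: tested at 20 µM; growth read once vehicle control cultures reached saturation at 30 °C; 1 = growth at the plate median or of vehicle wells; lower values mean less growth of the strain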
# MEASUREMENT PARAMETERS: S. cerevisiae deletion strains, growth OD, strain wtn01, stronger effect = lower value
Hit rate of the full screen: of about 5,500 compounds, about 2,000 (36%) were called active. Another 18% or so got no clear call; they are omitted. Some of the results follow.
Listing of entries alongside the reported normalized growth.
// no unit string in output, number only

See these solved cases before continuing.
COMPOUND	RECORDED VALUE
Nc1ccc(C(=O)O)cc1	1.02
CC(=O)O[C@H]1CC[C@@]2(C)C(=CC(=O)C3C4CCC(C(C)CCCC(C)C)[C@@]4(C)CCC32)C1 (some centres undefined)	1.05
CC(=O)OCC(=O)[C@@]1(O)[C@H](C)CC2C3CCC4=CC(=O)C=C[C@]4(C)[C@@]3(F)[C@@H](O)C[C@@]21C (some centres undefined)	0.997
C=C1c2c(Cl)ccc(O)c2C(O)=C2C(=O)[C@]3(O)C(O)=C(C(N)=O)C(=O)[C@@H](N(C)C)[C@@H]3[C@@H](O)[C@H]12	0.934
Cc1c(C)c2c(c(C)c1O)CCC(C)(CCCC(C)CCCC(C)CCCC(C)C)O2 (centres undefined)	1.01
O=C1NC(O)=NC1(c1ccccc1)c1ccccc1	1.03
C[n+]1ccccc1/C=N/O	0.993
COc1ccc2cc(CCC(C)=O)ccc2c1	0.959
CN(C)CCCN1c2ccccc2CCc2ccc(Cl)cc21	0.928
CC[N+](C)(C)c1cccc(O)c1	0.937

### Prompt Would you mind telling me what normalized growth value was observed for "Oc1cccc(O)c1" ?
### Response 0.979

### Prompt Item under review: "OC[C@H]1O[C@@](CO)(O[C@@H]2O[C@H](CO)[C@@H](O)[C@H](O)[C@H]2O)[C@@H](O[C@@H]2O[C@H](CO)[C@@H](O)[C@H](O)[C@H]2O)[C@@H]1O" . Reported normalized growth?
### Response 1.04
